assay: Volume of distribution at steady state in CD1 mouse at 5 mg/kg, iv; type: ADME, organism-based; parameters: dose 5 mg/kg, route intravenous; settings: in vivo, read-out: Vdss
If the reported Vd equals or exceeds 5 L/kg, assign T. If not, assign F.

Has CC[C@H]1OC(=O)[C@H](C)[C@@H](O[C@H]2C[C@@](C)(OC)[C@@H](O)[C@H](C)O2)[C@H](C)[C@@H](O[C@@H]2O[C@H](C)C[C@H](N(C)C)[C@H]2O)[C@](C)(O)C[C@@H](C)CN(C)[C@H](C)[C@@H](O)[C@]1(C)O a recorded Vd greater than or equal to 5 L/kg?
T

Has CC[C@H]1OC(=O)[C@H](C)[C@@H](O[C@H]2C[C@@](C)(OC)[C@@H](O)[C@H](C)O2)[C@H](C)[C@@H](O[C@@H]2O[C@H](C)C[C@H](N(C)C)[C@H]2O)[C@](C)(O)C[C@@H](C)CN(CCC(=O)N[C@H](C)c2cccc3ccccc23)[C@H](C)[C@@H](O)[C@]1(C)O a recorded Vd greater than or equal to 5 L/kg?
T

Has CC[C@H]1OC(=O)[C@H](C)[C@@H](O[C@H]2C[C@@](C)(OC)[C@@H](O)[C@H](C)O2)[C@H](C)[C@@H](O[C@@H]2O[C@H](C)C[C@H](N(C)C)[C@H]2O)[C@](C)(O)C[C@@H](C)CN(CCCNc2ccnc3cc(Cl)ccc23)[C@H](C)[C@@H](O)[C@]1(C)O a recorded Vd greater than or equal to 5 L/kg?
F

====

I'd appreciate it if you could supply log10 of IC50 values for the items below.
tested on: Plasmodium falciparum; assay: Antimalarial activity against mefloquine-resistant Plasmodium falciparum TM91C235 assessed as [3H]hypoxanthine incorporation after 48 hrs; type: functional, organism-based
Hey, these are logged values: log10 of IC50, nM being the unit before logging.

Using the record for CC[C@H]1OC(=O)[C@H](C)[C@@H](O[C@H]2C[C@@](C)(OC)[C@@H](O)[C@H](C)O2)[C@H](C)[C@@H](O[C@@H]2O[C@H](C)C[C@H](N(C)C)[C@H]2O)[C@](C)(O)C[C@@H](C)CN(CCCNc2cc(C)nc3ccc(OC)cc23)[C@H](C)[C@@H](O)[C@]1(C)O , report its log10 of IC50.
2.93

Using the record for CC[C@H]1OC(=O)[C@H](C)[C@@H](O[C@H]2C[C@@](C)(OC)[C@@H](O)[C@H](C)O2)[C@H](C)[C@@H](O[C@@H]2O[C@H](C)C[C@H](N(C)C)[C@H]2O)[C@](C)(O)C[C@@H](C)CN(CCCNC(=O)Cc2ccc3ccccc3c2)[C@H](C)[C@@H](O)[C@]1(C)O , report its log10 of IC50.
1.90

Using the record for CC[C@H]1OC(=O)[C@H](C)[C@@H](O)[C@H](C)[C@@H](O[C@@H]2O[C@H](C)C[C@H](N(C)C)[C@H]2O)[C@](C)(O)C[C@@H](C)CN(CCCNCc2ccncc2)[C@H](C)[C@@H](O)[C@]1(C)O , report its log10 of IC50.
3.59

Using the record for CC[C@H]1OC(=O)[C@H](C)[C@@H](O[C@H]2C[C@@](C)(OC)[C@@H](O)[C@H](C)O2)[C@H](C)[C@@H](O[C@@H]2O[C@H](C)C[C@H](N(C)C)[C@H]2O)[C@](C)(O)C[C@@H](C)CN(CCCNC(=O)[C@H](C)c2ccc3cc(OC)ccc3c2)[C@H](C)[C@@H](O)[C@]1(C)O , report its log10 of IC50.
1.76

Using the record for CC[C@H]1OC(=O)[C@H](C)[C@@H](O[C@H]2C[C@@](C)(OC)[C@@H](O)[C@H](C)O2)[C@H](C)[C@@H](O[C@@H]2O[C@H](C)C[C@H](N(C)C)[C@H]2O)[C@](C)(O)C[C@@H](C)CN(CCCNc2ccnc3cc(Cl)ccc23)[C@H](C)[C@@H](O)[C@]1(C)O , report its log10 of IC50.
1.34

Using the record for CC[C@H]1OC(=O)[C@H](C)[C@@H](O)[C@H](C)[C@@H](O)[C@](C)(O)C[C@@H](C)CN(CCCNCc2ccc3ccccc3n2)[C@H](C)[C@@H](O)[C@]1(C)O , report its log10 of IC50.
3.29

Using the record for CC[C@H]1OC(=O)[C@H](C)[C@@H](O[C@H]2C[C@@](C)(OC)[C@@H](O)[C@H](C)O2)[C@H](C)[C@@H](O[C@@H]2O[C@H](C)C[C@H](N(C)C)[C@H]2O)[C@](C)(O)C[C@@H](C)CN(CCCNCc2cnc3ccccc3c2)[C@H](C)[C@@H](O)[C@]1(C)O , report its log10 of IC50.
1.70

Using the record for CC[C@H]1OC(=O)[C@H](C)[C@@H](O[C@H]2C[C@@](C)(OC)[C@@H](O)[C@H](C)O2)[C@H](C)[C@@H](O[C@@H]2O[C@H](C)C[C@H](N(C)C)[C@H]2O)[C@](C)(O)C[C@@H](C)CN(CCCNC(=O)Cc2ccccc2)[C@H](C)[C@@H](O)[C@]1(C)O , report its log10 of IC50.
2.37

Using the record for CC[C@H]1OC(=O)[C@H](C)[C@@H](O[C@H]2C[C@@](C)(OC)[C@@H](O)[C@H](C)O2)[C@H](C)[C@@H](O[C@@H]2O[C@H](C)C[C@H](N(C)C)[C@H]2O)[C@](C)(O)C[C@@H](C)CN(CCCNC(=O)CCCCc2ccccc2)[C@H](C)[C@@H](O)[C@]1(C)O , report its log10 of IC50.
1.96

Using the record for CC[C@H]1OC(=O)[C@H](C)[C@@H](O[C@H]2C[C@@](C)(OC)[C@@H](O)[C@H](C)O2)[C@H](C)[C@@H](O[C@@H]2O[C@H](C)C[C@H](N(C)C)[C@H]2O)[C@](C)(O)C[C@@H](C)CN(CCCNc2ccnc3ccccc23)[C@H](C)[C@@H](O)[C@]1(C)O , report its log10 of IC50.
1.40

Using the record for CC[C@H]1OC(=O)[C@H](C)[C@@H](O)[C@H](C)[C@@H](O[C@@H]2O[C@H](C)C[C@H](N(C)C)[C@H]2O)[C@](C)(O)C[C@@H](C)CN(CCCNCc2ccc3ccccc3n2)[C@H](C)[C@@H](O)[C@]1(C)O , report its log10 of IC50.
2.21

Using the record for CC[C@H]1OC(=O)[C@H](C)[C@@H](O[C@H]2C[C@@](C)(OC)[C@@H](O)[C@H](C)O2)[C@H](C)[C@@H](O[C@@H]2O[C@H](C)C[C@H](N(C)C)[C@H]2O)[C@](C)(O)C[C@@H](C)CN(CCC(=O)NCc2cccc3ccccc23)[C@H](C)[C@@H](O)[C@]1(C)O , report its log10 of IC50.
1.90

Using the record for CC[C@H]1OC(=O)[C@H](C)[C@@H](O[C@H]2C[C@@](C)(OC)[C@@H](O)[C@H](C)O2)[C@H](C)[C@@H](O[C@@H]2O[C@H](C)C[C@H](N(C)C)[C@H]2O)[C@](C)(O)C[C@@H](C)CN(CCC(=O)NCc2ccccc2)[C@H](C)[C@@H](O)[C@]1(C)O , report its log10 of IC50.
2.42

Using the record for CC[C@H]1OC(=O)[C@H](C)[C@@H](O[C@H]2C[C@@](C)(OC)[C@@H](O)[C@H](C)O2)[C@H](C)[C@@H](O[C@@H]2O[C@H](C)C[C@H](N(C)C)[C@H]2O)[C@](C)(O)C[C@@H](C)CN(CCCNC(=O)CCCc2ccccc2)[C@H](C)[C@@H](O)[C@]1(C)O , report its log10 of IC50.
1.93
